Tested on: Hs-578T
test.method.notes: NCI tumour cell line growth inhibition, 48 h
The source made the active and inactive calls. No stated cut-off is given here; in the data, active = GI50 up to about 1.1 µM and inactive = higher.
Could you please pick one outcome from this set? active, inactive

Asked: Any idea what this test logged for `CC(C)[C@@H]1NC(=O)[C@@H]2N=C(O[C@H]2C)[C@H](C(C)C)NC(=O)C2N=C1O[C@H]2C` ?
Given back: inactive

Asked: # lookup: test call for `Cc1ccc(NC(=O)/C(Cc2nc3ccc([N+](=O)[O-])cc3nc2O)=N\NC(=O)C[n+]2ccccc2)c(C)c1`
Given back: inactive

Asked: Per the assay record, what outcome was assigned to `CC(=O)CC[N+](C)(C)C` ?
Given back: inactive

Asked: Tell me the assay call for `COc1ccc(CCCNC(=O)Cc2cc(OC)c(OC)cc2CO)cc1OC` please.
Given back: inactive

Asked: Recorded test call requested for `C=C(C)[C@@H]1CC[C@]2(C(=O)O)CC[C@]3(C)[C@H](CC[C@@H]4[C@@]5(C)CC(=O)C(C)(C)[C@@H]5CC[C@]43C)[C@@H]12`
Given back: inactive

Asked: Could you kindly confirm the outcome this assay logged for `O=C(Nc1sccc1S(=O)(=O)c1ccc(Cl)cc1)c1ccccc1` ?
Given back: inactive

Asked: Called result for `CCOC(=O)c1cccc(/N=N/c2ncc(/C=C/C(=O)OC)[nH]2)c1`
Given back: inactive

Asked: For CC[C@H](C)[C@H]1NC(=O)[C@@H](NC(=O)[C@@H](CC(C)C)N(C)C(=O)C2CCCN2C(=O)[C@H](C)O)[C@@H](C)OC(=O)[C@H](Cc2ccccc2)N(C)C(=O)[C@@H]2CCCN2C(=O)[C@H](CC(C)C)NC(=O)[C@@H](C)C(=O)[C@H](C(C)C)OC(=O)C[C@@H]1O (stereo partly specified) , what call appears in the results of this test?
Given back: active

Asked: Call for entry S=C=NC1CCC(c2cc3ccccc3s2)(N2CCCCC2)CC1 (stereo unspecified) :
Given back: inactive

Asked: What outcome does the record of this test show for `COc1ccc([C@H]2CC(=O)C[C@H](c3ccc(OC)cc3)C23C(=O)c2ccccc2C3=O)cc1` ?
Given back: inactive

Asked: Tell me the assay call for `CC(C)(C)O/N=C/c1cc(NC(=S)c2ccccc2)ccc1Cl` please.
Given back: inactive
